System: Bel-7402
Experiment: Cytotoxicity in human Bel7402 cells assessed as reduction in cell viability incubated for 48 hrs by MTT assay
Format: functional, cell-based
Conditions: Bel-7402, 48 h
attribute measured: pIC50
Numbers only, as −log10 of the molar value.

compound: CC[C@@]1(O)C(=O)OCc2c1cc1n(c2=O)Cc2cc3c(ccc4oc(-c5ccccn5)nc43)nc2-1
target or test system: Bel-7402
pIC50: 5.71

Each of the following entries comes with a recorded value; kindly state pIC50 for each.
1. CC[C@@]1(O)C(=O)OCc2c1cc1n(c2=O)Cc2cc3c(ccc4oc(CC(C)C)nc43)nc2-1
2. CCCCc1nc2c(ccc3nc4c(cc32)Cn2c-4cc3c(c2=O)COC(=O)[C@]3(O)CC)o1
3. CC[C@@]1(O)C(=O)OCc2c1cc1n(c2=O)Cc2cc3c(ccc4oncc43)nc2-1

Result:
[5.67, 5.69, 4.98]

----------
Test system: KB
Test: Cytotoxicity in human KB cells assessed as reduction in cell viability incubated for 48 hrs by MTT assay
Assay type: functional, cell-based
Could you please report measured IC50 for the items listed next?
Numbers only, in nM.

molecule: CC[C@@]1(O)C(=O)OCc2c1cc1n(c2=O)Cc2cc3c(ccc4oc(C(C)C)nc43)nc2-1
IC50, nM: 2200
--
molecule: CC[C@@]1(OC(=O)CNC(=O)CCC(=O)O)C(=O)OCc2c1cc1n(c2=O)Cc2cc3c(ccc4oncc43)nc2-1
IC50, nM: 7140

// each molecule listed below needs its IC50
1. CC[C@@]1(O)C(=O)OCc2c1cc1n(c2=O)Cc2cc3c(ccc4oc(-c5ccccn5)nc43)nc2-1
2. CC[C@@]1(O)C(=O)OCc2c1cc1n(c2=O)Cc2cc3c(ccc4oc(CC(C)C)nc43)nc2-1
3. CCCCc1nc2c(ccc3nc4c(cc32)Cn2c-4cc3c(c2=O)COC(=O)[C@]3(O)CC)o1
4. CC[C@@]1(O)C(=O)OCc2c1cc1n(c2=O)Cc2cc3c(ccc4oncc43)nc2-1
5. CC[C@@]1(OC(=O)CNC(=O)CCC(=O)O)C(=O)OCc2c1cc1n(c2=O)Cc2cc3c(ccc4ocnc43)nc2-1

Result:
2040
2200
2250
3340
916

Okay, here is my list. What is IC50 for each of these?
1. CC[C@@]1(O)C(=O)OCc2c1cc1n(c2=O)Cc2cc3c(ccc4ocnc43)nc2-1
2. CC[C@@]1(OC(=O)CNC(=O)CCC(=O)O)C(=O)OCc2c1cc1n(c2=O)Cc2cc3c(ccc4oc(C(C)C)nc43)nc2-1

Result:
[2570, 935]

Ask: API: value(readout=IC50, system=KB) for record CC[C@@]1(OC(=O)CNC(=O)CCC(=O)O)C(=O)OCc2c1cc1n(c2=O)Cc2cc3c4c(ccc3nc2-1)OC(C(C)C)NC4=O (stereo not given in full)
Result: 7280

----------
Assay: Aqueous solubility of the compound
Assay type: physicochemical
Settings: aqueous; read-out: solubility
attribute measured: solubility

Ask: Quick check: solubility of CC[C@@]1(O)C(=O)OCc2c1cc1n(c2=O)Cc2cc3c(CN(C)C)c(O)ccc3nc2-1 [TOPOTECAN] ?
Result: < 1000 µg/mL

----------
Tested on: MCF7
Experiment: cells
Details: Homo sapiens, MCF7, 48 h
Description: Cytotoxicity in human MCF7 cells assessed as reduction in cell viability incubated for 48 hrs by MTT assay
attribute measured: IC50 (µM)
One number for each entry, in µM.

compound: CC[C@@]1(O)C(=O)OCc2c1cc1n(c2=O)Cc2cc3c(CN(C)C)c(O)ccc3nc2-1 [TOPOTECAN]
target or test system: MCF7
IC50 / µM: 2.14

compound: CC[C@@]1(O)C(=O)OCc2c1cc1n(c2=O)Cc2cc3c(ccc4oc(C(C)C)nc43)nc2-1
target or test system: MCF7
IC50 / µM: 4.64

compound: CC[C@@]1(O)C(=O)OCc2c1cc1n(c2=O)Cc2cc3c(ccc4oc(-c5ccccn5)nc43)nc2-1
target or test system: MCF7
IC50 / µM: 6.44

compound: CCCCc1nc2c(ccc3nc4c(cc32)Cn2c-4cc3c(c2=O)COC(=O)[C@]3(O)CC)o1
target or test system: MCF7
IC50 / µM: 2.14

State recorded IC50 for all listed compounds.
1. CC[C@@]1(O)C(=O)OCc2c1cc1n(c2=O)Cc2cc3c(ccc4ocnc43)nc2-1
2. CC[C@@]1(O)C(=O)OCc2c1cc1n(c2=O)Cc2cc3c(ccc4oc(CC(C)C)nc43)nc2-1
3. CC[C@@]1(O)C(=O)OCc2c1cc1n(c2=O)Cc2cc3c(ccc4oncc43)nc2-1

Result:
[2.31, 7.87, 1.16]
